- System: MDA-MB-231 complex spheroids, growth inhibition
- ASSAY_NOTES: Anticancer human tumor MDA-MB-231 cell line growth inhibition [Asc];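 also: spheroids exposed to compounds for 7 days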
- CONDITIONS_USED: second compound 1 µM; first compound 3 µM; stronger effect = lower value
QUANTITY_NAME: viability, T/C

Field: example entries. Status: answers known.
MOLECULE	RESULT
Cc1nc(N2CCC3(CC2)COC(C)C3N)c(CO)nc1Sc1ccnc(N)c1Cl (centres undefined) + CNC(C)C(=O)NC1CN(S(=O)(=O)c2cccc(S(=O)(=O)N3CCC4CCC(C(=O)NC(c5ccccc5)c5ccccc5)N4C(=O)C(NC(=O)C(C)NC)C3)c2)CCC2CCC(C(=O)NC(c3ccccc3)c3ccccc3)N2C1=O	0.93%
CCN1C(C(=O)NC23CCC(C(=O)O)(CC2)CC3)C(c2cccc(Cl)c2F)C2(C(=O)Nc3cc(Cl)ccc32)C12CCCCC2 (centres undefined) + Cc1c(S(C)(=O)=O)c(-c2cc(F)cc(N3CCN(c4ccc(NS(=O)(=O)c5ccc(NC(CCN6CCC(C(=O)OCCCP(=O)(O)O)CC6)CSc6ccccc6)c(S(=O)(=O)C(F)(F)F)c5)cc4)CC3)c2)c(-c2ccc(Cl)cc2)n1C(C)C	82%

Take each entry in turn and give its viability, T/C.
1. CCN1C(C(=O)NC23CCC(C(=O)O)(CC2)CC3)C(c2cccc(Cl)c2F)C2(C(=O)Nc3cc(Cl)ccc32)C12CCCCC2 (centres undefined) + CNC(C)C(=O)NC1CN(S(=O)(=O)c2cccc(S(=O)(=O)N3CCC4CCC(C(=O)NC(c5ccccc5)c5ccccc5)N4C(=O)C(NC(=O)C(C)NC)C3)c2)CCC2CCC(C(=O)NC(c3ccccc3)c3ccccc3)N2C1=O
2. Cc1nc(N2CCC3(CC2)COC(C)C3N)c(CO)nc1Sc1ccnc(N)c1Cl (centres undefined) + Cc1c(S(C)(=O)=O)c(-c2cc(F)cc(N3CCN(c4ccc(NS(=O)(=O)c5ccc(NC(CCN6CCC(C(=O)OCCCP(=O)(O)O)CC6)CSc6ccccc6)c(S(=O)(=O)C(F)(F)F)c5)cc4)CC3)c2)c(-c2ccc(Cl)cc2)n1C(C)C

Response given:
0.71%
1.11%
